- test name: qHTS Assay for Inhibitors of Hepatitis C Virus (HCV)
- experimental parameters: Huh7.5.1 HCVcc-Cre infection, luciferase reporter, 44 h; series mostly up to 41.8 µM
- Text: Hepatitis C virus (HCV) infects about 200 million people in the world. Many infected people progress to chronic liver disease including cirrhosis with a risk of developing liver cancer. To date, there is no effective vaccine for hepatitis C. Current therapy based on interferon is only effective in about half of the patients and is associated with significant adverse effects. The fraction of people with HCV who can complete a successful treatment is estimated to be no more than 10 percent. […]
Out of some 340,000 compounds screened, about 12,000 (3.5%) were called active. Roughly 18% stayed inconclusive and do not appear here. Calls follow the shape of the dose curve; as a rule, active = well fitted inhibition curve with a large enough effect; inconclusive = small, poorly fitted or top-dose-only effect, or another doubt; inactive = no such curve, though single readings can be large or run the other way. The sample as a whole holds a higher share of actives than the screen did.
In this exercise, the only acceptable responses are yes (1) (active), no (0) (inactive)

• COc1ccc(S(=O)(=O)N2CCCCCC2)cc1C(=O)N(C)Cc1cccc(OC)c1OC = no (0)
• COc1ccc(-c2cc3ncccc3cn2)cc1 = no (0)
• CCN(CC)S(=O)(=O)c1ccc(NC(=O)c2cnc(C)cn2)cc1 = no (0)
• O=C(NCCC1=CCCCC1)c1ccc(-n2cncn2)cc1 = no (0)
• CCN(CC)S(=O)(=O)c1ccc(N(C)Cc2ccc(C(F)(F)F)cc2)nc1 = yes (1)
• CN1C(c2ccc(F)cc2)=CS/C1=C(/C#N)c1nnc2n1-c1ccccc1SC2 = no (0)
• Cc1sc2ncnc(N3CCC(C(=O)Nc4ccc(F)cc4Cl)CC3)c2c1C = yes (1)
• Cc1ccc(NC(=O)c2csc3c2CCCC3)cc1 = no (0)

Query :: Field: outcome | Entry: Cc1cc2c(cc1C)NC1(C[C@H]3CCC(=O)N4CC[C@@H](C1)[C@@H]34)C(=NC(C)(C)CC(C)(C)C)N2 (stereo not given in full)
Result :: no (0)

Query :: Would you kindly repeat that for `CCN(CC)S(=O)(=O)c1ccc(N(C)Cc2cccc(OC)c2OC)nc1` ?
Result :: yes (1)

* * *

- test name: qHTS Assay for Inhibitors of Hepatitis C Virus (HCV)
- experimental parameters: Huh7.5.1 HCVcc-Cre infection, luciferase reporter, 44 h; series mostly up to 41.8 µM
- Excerpt: Hepatitis C virus (HCV) infects about 200 million people in the world. Many infected people progress to chronic liver disease including cirrhosis with a risk of developing liver cancer. To date, there is no effective vaccine for hepatitis C. Current therapy based on interferon is only effective in about half of the patients and is associated with significant adverse effects. The fraction of people with HCV who can complete a successful treatment is estimated to be no more than 10 percent. […]
The campaign covered roughly 340,000 compounds. About 12,000 (3.5%) were called active. Not shown: some 18% with an inconclusive outcome. Calls come from the whole dose curve; as a rule, active = well fitted inhibition curve with a large enough effect; inconclusive = small, poorly fitted or top-dose-only effect, or another doubt; inactive = no such curve, though single readings can be large or run the other way. What follows is part of a selection rich in actives, with near analogues and random picks from the rest.
In this exercise, the only acceptable responses are True for active, False for inactive

Below, 3 compounds whose answers are already recorded.
* O=C(c1ccc(S(=O)(=O)NCc2ccco2)cc1)N1CCN(c2ccccc2)CC1 | False
* COc1cccc(/C=N\NC(=O)C2=NNC(=O)C2C)c1O (stereo unspecified) | False
* CCN1C(=O)[C@H]2[C@@H](c3ccc(C)cc3)N3C(=O)N(c4cccc(Br)c4)C(=O)[C@@]3(CC)[C@H]2C1=O | False

Continue with the next compound.
Query :: Field: outcome | Entry: `CCOC(=O)c1ccc(NC(=O)CCn2c(=O)oc3ccccc32)cc1`
Result :: False
